pIC50: −log10 of the molar value.
pIC50, SYK (Homo sapiens): measured values

Observe how each entry below is paired with its result.
[
  {
    "molecule": "CC1(C)CCNc2cc(Nc3nc4c(N5CCC6(CC5)CNC(=O)O6)nccn4n3)ccc21 [E53]",
    "measurement-type": "pIC50",
    "observed-value": "> 7.00"
  },
  {
    "molecule": "CC1(C)C(=O)Nc2cc(Nc3nc4c(N5C[C@H](O)C[C@H]5c5ccccc5)nccn4n3)ccc21 [E24]",
    "measurement-type": "pIC50",
    "observed-value": "4.30 to 5.52"
  }
]

For CC1(C)C(=O)Nc2cc(Nc3nc4c(-c5cnc6ccccc6c5)nccn4n3)ccc21 [E115] on SYK (Homo sapiens), measured pIC50 was > 7.00

For CC1(C)CN(c2nccn3nc(Nc4ccc5c(c4)NC(=O)C5(C)C)nc23)c2cc(Cl)ccc21 [E100] on SYK (Homo sapiens), measured pIC50 was 5.52 to 6.52
